Test system: Aldehyde reductase
Assay: Amount of NADH generated from polyol substrates by aldehyde reductase (Example 3)
Format: biochemical, Candida
Conditions: substrate 100 mmol/L; NAD+ 1.3 mg/mL; enzyme 2.5 μ/mL; 25° C.; relative to alcohol dehydrogenase with ethylene glycol = 100
Consider the following molecules and their measured Amount of reduced coenzyme generated (relative value %), Aldehyde reductase readings.
Express your answer in %, writing the number without its unit.

> print(dat)
                  chemical.string        study.system  result.unit  observed.measurement
1  OC[C@@H](O)[C@H](O)[C@@H](O)CO  Aldehyde reductase            %                    34

Prompt line: Suppose we examine the molecule OC[C@@H](O)[C@@H](O)CO ; what Amount of reduced coenzyme generated (relative value %), Aldehyde reductase value has been reported?
Response line: 50

Prompt line: Suppose we examine the molecule OCC(O)CO ; what Amount of reduced coenzyme generated (relative value %), Aldehyde reductase value has been reported?
Response line: 7.0

Prompt line: Suppose we examine the molecule OC[C@@H](O)[C@@H](O)[C@H](O)[C@@H](O)CO ; what Amount of reduced coenzyme generated (relative value %), Aldehyde reductase value has been reported?
Response line: 100

Prompt line: Suppose we examine the molecule OCCO ; what Amount of reduced coenzyme generated (relative value %), Aldehyde reductase value has been reported?
Response line: 4.0
